This section presents compounds with their documented viability, T/C values.
# Tested on: 276233-004-R-J1-PDC complex spheroid viability;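 also: spheroids exposed to drugs for seven days; 100% = DMSO vehicle control viability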
# TEST_DESCRIPTION: Anticancer human tumor 276233-004-R-J1-PDC patient-derived colon adenocarcinoma cell line growth inhibition [GQUAD]
# ASSAY_CONDITIONS: second compound 10 µM; first compound 3.16 µM; hits give low values
# From the text: DNA G-quadruplex Stabilizer Agents in Combinations in Complex Spheroids A high-throughput screen of multi-cell type tumor spheroids was designed to identify active combinations of DNA G-quadruplex stabilizer agents and targeted small molecules. […] Compounds. […] If the clinical Cmax for an agent had not been determined, the highest concentration tested was 10 microM. […]
Kindly answer with a numeric value in %, unit omitted.

These solved cases illustrate the format of a correct answer.
COMPOUND	TESTED_TARGET	READOUT_UNITS	viability, T/C
Cc1cccc(N(C)C(=O)C2C(O)CCN2c2nc(C)cc(C(F)(F)F)c2C#N)c1 (stereo not given) + Cc1[nH]c2ccc(F)cc2c1-c1nc2c3cccnc3c3ncccc3c2[nH]1	276233-004-R-J1-PDC complex spheroid viability	%	58
COc1ncnc(C2CC2)c1-c1ncc2cnn(Cc3ccc(-c4nc(C(F)(F)F)cn4C(C)C)cc3)c2n1 + CN(C)c1ccc(Nc2c3ccc(NC(=O)CCN4CCCC4)cc3nc3cc(NC(=O)CCN4CCCC4)ccc23)cc1	276233-004-R-J1-PDC complex spheroid viability	%	58.4
CC(C)(O)C1CCC(Nc2ccc3ncc(-c4cccc(C(F)(F)F)c4)n3n2)CC1 (stereo not given) + CN(C)c1ccc(Nc2c3ccc(NC(=O)CCN4CCCC4)cc3nc3cc(NC(=O)CCN4CCCC4)ccc23)cc1	276233-004-R-J1-PDC complex spheroid viability	%	41
C=CCn1c(=O)c2cnc(Nc3ccc(N4CCN(C)CC4)cc3)nc2n1-c1cccc(C(C)(C)O)n1 + Cc1[nH]c2ccc(F)cc2c1-c1nc2c3cccnc3c3ncccc3c2[nH]1	276233-004-R-J1-PDC complex spheroid viability	%	30.3

Shifting focus to the compound that follows.
Recorded viability, T/C of O=C(c1cc(Cc2n[nH]c(=O)c3ccccc23)ccc1F)N1CCN(C(=O)C2CC2)CC1 + CN(C)c1ccc(Nc2c3ccc(NC(=O)CCN4CCCC4)cc3nc3cc(NC(=O)CCN4CCCC4)ccc23)cc1 , please.
55.2
